Molecular target: T1, SURP1 (res. 48–110) of human SF3A1, N63E mutant (human, UniProt Q15459 48-110, N63E)
T1 sequence: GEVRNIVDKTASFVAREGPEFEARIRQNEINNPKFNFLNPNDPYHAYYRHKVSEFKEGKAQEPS
Assay: BLI
Ends that are not written are not given here.
MEASURE: pKd
Field pKd (float): negative decimal logarithm of the concentration in molar.

Any idea what pKd was measured for QRPGDPQSAQDKARMDKEYLSLMAELGEAPVPA (peptide, UniProt Q15637 295-327, looked up, also: biotin (position not given here)) [biotin-tagged SF1 S1BRp (res. 295–327)] ?
3.60
